- assay.system: UniProt:P25098
- protocol.details: Inhibition of Beta-adrenergic receptor kinase 1 at 1 mM
just bin them by inhibition: lower (below 20%), middle (20% to below 40%), upper (40% or more)

>  <compound>
Oc1nnc(Cc2ccc(-c3ccccc3Cl)o2)c2ccccc12

>  <category.label>
upper

$$$$
>  <compound>
CC(C)COC(=O)CSc1nc2c(c(=O)[nH]c(=O)n2C)n1C

>  <category.label>
lower

$$$$
>  <compound>
CC(=O)CC(=O)Nc1cc(C(C)(C)C)sc1C(N)=O

>  <category.label>
middle

$$$$
>  <compound>
O=C(NCc1ccco1)c1ccc([N+](=O)[O-])o1

>  <category.label>
middle

$$$$
>  <compound>
COC(=O)c1ccc(/C=C/c2ccc([N+](=O)[O-])o2)o1

>  <category.label>
upper

$$$$
>  <compound>
NC(=O)c1ncn([C@@H]2O[C@@H](CO)[C@H](O)[C@@H]2O)n1

>  <category.label>
lower

$$$$
>  <compound>
Nc1nc(O)c2ncn([C@H]3O[C@@H]4COP(=O)(O)O[C@H]4[C@H]3O)c2n1

>  <category.label>
middle

$$$$
>  <compound>
CCC(=O)n1nc2c(c1C(C)(C)C)C(=O)c1ccccc1-2

>  <category.label>
upper

$$$$
>  <compound>
O=C1C(O)=C(O)O[C@@H]1C1COC2(CCCCC2)O1 (stereo partly drawn)

>  <category.label>
lower

$$$$
>  <compound>
COC(=O)c1sccc1Oc1ccc(C(F)(F)F)cc1NC=C(C#N)C#N

>  <category.label>
middle

$$$$
>  <compound>
Cc1ccc(Cl)cc1NCN1C(=O)CNC1=S

>  <category.label>
middle

$$$$

---

- assay.system: Beta-adrenergic receptor kinase 1 (Homo sapiens, UniProt P25098)
- Sequence (P25098 whole entry): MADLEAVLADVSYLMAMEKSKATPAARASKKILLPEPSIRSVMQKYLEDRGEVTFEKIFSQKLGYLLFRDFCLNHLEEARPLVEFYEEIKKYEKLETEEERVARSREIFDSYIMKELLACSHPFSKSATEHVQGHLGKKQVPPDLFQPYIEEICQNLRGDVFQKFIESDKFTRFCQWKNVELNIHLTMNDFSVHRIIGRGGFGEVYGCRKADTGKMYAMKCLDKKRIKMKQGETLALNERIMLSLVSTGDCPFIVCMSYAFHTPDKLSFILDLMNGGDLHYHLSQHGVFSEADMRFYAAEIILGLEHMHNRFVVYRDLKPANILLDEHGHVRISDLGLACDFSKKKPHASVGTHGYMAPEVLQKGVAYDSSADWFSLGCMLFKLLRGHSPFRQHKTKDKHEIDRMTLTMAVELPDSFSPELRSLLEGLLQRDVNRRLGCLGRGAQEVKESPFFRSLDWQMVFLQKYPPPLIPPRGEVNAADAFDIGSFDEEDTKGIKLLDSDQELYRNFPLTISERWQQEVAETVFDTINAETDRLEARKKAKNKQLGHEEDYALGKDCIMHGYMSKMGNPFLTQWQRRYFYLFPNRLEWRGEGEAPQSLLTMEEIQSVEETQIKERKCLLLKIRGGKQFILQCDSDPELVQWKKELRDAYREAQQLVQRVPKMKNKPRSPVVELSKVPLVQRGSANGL

>  <molecular.string>
COC(=O)c1ccc(/C=C/c2ccc([N+](=O)[O-])o2)o1

>  <assay.system>
Beta-adrenergic receptor kinase 1 (Homo sapiens, UniProt P25098)

>  <unit.label>
µM

>  <IC50>
126

$$$$

---

- assay.system: Beta-adrenergic receptor kinase 1 (Homo sapiens)
- protocol.details: Inhibition of Beta-adrenergic receptor kinase 1 at 1 mM (Inactive)
Calls of active or inactive are those of the source. No cut-off for these calls is given here.

>  <molecular.string>
CC(C)Sc1nc2sccn2c1/C=N/OCc1c(Cl)cccc1Cl

>  <inhibition>
inactive

$$$$
>  <molecular.string>
Clc1ccc(-c2csc(Nc3ccccc3)n2)cc1

>  <inhibition>
inactive

$$$$
>  <molecular.string>
CCCCCCCCCCCCCCCCN(C)c1ccc(S(C)(=O)=O)cc1N

>  <inhibition>
inactive

$$$$
>  <molecular.string>
Cc1csc(-c2nc(-c3ccc(Cl)cc3)no2)c1Cl

>  <inhibition>
inactive

$$$$
>  <molecular.string>
O=C(Nc1ccc(F)c([N+](=O)[O-])c1)Nc1cccc2c(O)cccc12

>  <inhibition>
inactive

$$$$
>  <molecular.string>
C/C(CCS(=O)(=O)c1ccccc1)=N\OC/C=C/Cl

>  <inhibition>
inactive

$$$$
>  <molecular.string>
O=[N+]([O-])c1ccccc1/N=C/c1ccc2c(c1)OCO2

>  <inhibition>
inactive

$$$$
>  <molecular.string>
COc1ccc(/C=N/c2ccc(O)cc2)cc1

>  <inhibition>
inactive

$$$$
